Target: EphB4 (Homo sapiens, UniProt P54760)
Sequence (P54760 16-987): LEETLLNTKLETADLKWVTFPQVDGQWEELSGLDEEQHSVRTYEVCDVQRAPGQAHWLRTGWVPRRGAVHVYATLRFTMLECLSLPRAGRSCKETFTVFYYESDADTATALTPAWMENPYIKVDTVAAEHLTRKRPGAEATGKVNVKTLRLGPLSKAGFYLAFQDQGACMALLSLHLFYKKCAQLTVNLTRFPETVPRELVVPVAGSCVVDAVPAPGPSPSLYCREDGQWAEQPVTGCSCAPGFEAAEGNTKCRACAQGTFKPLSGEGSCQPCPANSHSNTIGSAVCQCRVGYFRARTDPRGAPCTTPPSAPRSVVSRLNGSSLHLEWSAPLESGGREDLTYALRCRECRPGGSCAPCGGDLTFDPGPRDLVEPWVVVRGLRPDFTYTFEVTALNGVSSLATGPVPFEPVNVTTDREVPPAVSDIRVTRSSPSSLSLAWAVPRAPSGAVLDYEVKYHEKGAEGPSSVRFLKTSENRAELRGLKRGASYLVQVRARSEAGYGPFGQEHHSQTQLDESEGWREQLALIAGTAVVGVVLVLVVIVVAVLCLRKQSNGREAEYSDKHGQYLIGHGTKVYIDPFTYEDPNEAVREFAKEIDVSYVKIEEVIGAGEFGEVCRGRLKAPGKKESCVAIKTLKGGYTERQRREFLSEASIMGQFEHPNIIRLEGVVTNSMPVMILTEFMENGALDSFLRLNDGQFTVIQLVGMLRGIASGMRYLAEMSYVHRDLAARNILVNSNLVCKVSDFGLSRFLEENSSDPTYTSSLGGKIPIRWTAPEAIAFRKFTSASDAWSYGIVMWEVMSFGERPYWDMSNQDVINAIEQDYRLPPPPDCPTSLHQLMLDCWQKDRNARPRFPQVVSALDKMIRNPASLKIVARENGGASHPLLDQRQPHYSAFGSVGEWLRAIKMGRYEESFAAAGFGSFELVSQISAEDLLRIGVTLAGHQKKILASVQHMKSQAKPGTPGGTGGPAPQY
Assay: ADP-Glo kinase inhibition assay, EphB4
Assay type: biochemical
Settings: Table 1, ATP 50 μM, read-out: EphB4 inhibitory activity (IC50)
pIC50: −log10 of the molar value.

smiles_code	inequality_sign	pIC50
O=C(Nc1ccc(-c2ccc(NC(=O)C3CC3)nc2)cc1)Nc1ccccc1F	<	6.00
O=C(Nc1ccc(-c2ccc(NC(=O)C3CC3)nc2)cc1)Nc1ccc(Cl)c(C(F)(F)F)c1	=	8.29
O=C(Nc1ccc(-c2ccc(NC(=O)C3CC3)nc2)cc1)Nc1ccc(C(F)(F)F)c(Cl)c1	<	6.00
O=C(Nc1ccc(-c2ccc(NC(=O)C3CC3)nc2)cc1)Nc1cccc(Cl)c1	=	6.02
